Listed next: entries and their corresponding MIC.
- Tested on: Klebsiella pneumonia ATCC 43816
Write the answer as a number in µg/mL, unit excluded.

Record excerpt, results attached:
CN[C@@H]1CC(=O)N(c2ccc(S(=O)(=O)N3CCN(c4cc(C(F)(F)[C@H]5CC[C@H](C(=O)NCCCN)CC5)cc(Cl)n4)CC3)cc2)C1 : 0.56
C[C@H]1C[C@H](N)CN1C(=O)[C@H]1CC[C@H](C(F)(F)c2cc(Cl)nc(N3CCN(S(=O)(=O)c4ccc(N5C[C@H](N)CC5=O)cc4)CC3)c2)CC1 : 0.57
NCCCNC(=O)[C@H]1CC[C@H](C(F)(F)c2cc(Cl)nc(N3CCN(S(=O)(=O)c4ccc(N5C[C@H](N)CC5=O)nc4)CC3)c2)CC1 : 1.1
C[C@H]1CNC[C@@H]1NC(=O)[C@H]1CC[C@H](C(F)(F)c2cc(Cl)nc(N3CCN(S(=O)(=O)c4ccc(N5C[C@H](N)CC5=O)cc4)CC3)c2)CC1 : 0.32
N[C@@H]1CC(=O)N(c2ccc(S(=O)(=O)N3CCN(c4cc(C(F)(F)[C@H]5CC[C@@H](C(=O)NCCCO)CC5)cc(Cl)n4)CC3)cc2)C1 : 2.2

Qu. Fill blank: measured MIC of the molecule NC[C@@H]1CN([C@@H]2CC[C@H](NC(=O)[C@H]3CC[C@H](C(F)(F)c4cc(Cl)nc(N5CCN(S(=O)(=O)c6ccc(N7C[C@H](N)CC7=O)cc6)CC5)c4)CC3)C2)C[C@@H]1CN is ____.
Ans. 0.99

Qu. Same for NCCCNC(=O)c1cnc(C(F)(F)c2cc(Cl)nc(N3CCN(S(=O)(=O)c4ccc(N5C[C@H](N)CC5=O)cc4)CC3)c2)cn1
Ans. 1.8

Qu. Same for C[N+]1(CCCNC(=O)c2ccc(C(F)(F)c3cc(Cl)nc(N4CCN(S(=O)(=O)c5ccc(N6C[C@H](N)CC6=O)cc5)CC4)c3)cc2)CCCC1
Ans. 1.5

Qu. Same for CC1(N)CCN(C(=O)[C@H]2CC[C@H](C(F)(F)c3cc(Cl)nc(N4CCN(S(=O)(=O)c5ccc(N6C[C@H](N)CC6=O)cc5)CC4)c3)CC2)CC1
Ans. 1.1

Qu. Same for NCC(=O)N[C@H]1CC[C@@H](NC(=O)[C@H]2CC[C@H](C(F)(F)c3cc(Cl)nc(N4CCN(S(=O)(=O)c5ccc(N6C[C@H](N)CC6=O)cc5)CC4)c3)CC2)C1
Ans. 0.85

Qu. Same for NCCCNC(=O)[C@H]1CC[C@H](C(F)(F)c2cc(Cl)nc(N3CCN(S(=O)(=O)c4ccc(N5C[C@H](CO)OC5=O)cc4)CC3)c2)CC1
Ans. 1.2

* * *

- assayed_system: Escherichia coli UDP-2,3-diacylglucosamine hydrolase (LpxH) (Escherichia coli (strain K12), UniProt P43341)
- Sequence (P43341 whole entry): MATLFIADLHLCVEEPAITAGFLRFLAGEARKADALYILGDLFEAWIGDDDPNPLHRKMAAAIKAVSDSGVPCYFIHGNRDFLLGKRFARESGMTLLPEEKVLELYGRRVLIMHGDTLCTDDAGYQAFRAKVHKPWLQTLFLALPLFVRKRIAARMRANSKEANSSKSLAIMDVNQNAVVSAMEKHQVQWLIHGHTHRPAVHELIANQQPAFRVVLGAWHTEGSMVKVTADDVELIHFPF
- method_description: Enzymatic IC50 assay of Escherichia coli LpxH (UMP/CMP-Glo luminescence)
- Type: biochemical
- measurement_conditions: Enzymatic IC50 against Escherichia coli LpxH; read-out: IC50 (converted)
reported_metric: IC50 (nM)
Write the answer as a number in nM, unit excluded.

NCCN(CCN)C(=O)[C@H]1CC[C@H](C(F)(F)c2cc(Cl)nc(N3CCN(S(=O)(=O)c4ccc(N5C[C@H](N)CC5=O)cc4)CC3)c2)CC1 [Example 043] : 35.9
CN1CC2(C1)CN(C(=O)[C@H]1CC[C@H](C(F)(F)c3cc(Cl)nc(N4CCN(S(=O)(=O)c5ccc(N6C[C@H](N)CC6=O)cc5)CC4)c3)CC1)C2 [Example 005] : 4.25
NCCCNC(=O)C1CCC(C(F)(F)c2cc(Cl)nc(N3CCN(S(=O)(=O)c4ccc(N5C[C@H](N)CC5=O)cc4)CC3)c2)C1 (stereo partly shown) [Example 035] : 45.9
NCCCNC(=O)[C@H]1CC[C@H](C(F)(F)c2cc(Cl)nc(N3CCN(S(=O)(=O)c4ccc(N5C[C@H](N)CC5=O)cc4)CC3)c2)CC1 [Example 056] : 5.99
NCCNC(=O)c1cnc(C(F)(F)c2cc(Cl)nc(N3CCN(S(=O)(=O)c4ccc(N5C[C@H](N)CC5=O)cc4)CC3)c2)cn1 [Example 024] : 4.61

Qu. Fill blank: measured IC50 of the compound NCC(=O)NNC(=O)[C@H]1CC[C@H](C(F)(F)c2cc(Cl)nc(N3CCN(S(=O)(=O)c4ccc(N5C[C@H](N)CC5=O)cc4)CC3)c2)CC1 [Example 050] is ____.
Ans. 2.93

Qu. Same for NC(=O)CNC(=O)[C@H]1CC[C@@H](C(F)(F)c2cc(Cl)nc(N3CCN(S(=O)(=O)c4ccc(N5C[C@H](N)CC5=O)cc4)CC3)c2)CC1 [Example 063]
Ans. 5.99

Qu. Same for NCCNCCNC(=O)[C@H]1CC[C@H](C(F)(F)c2cc(Cl)nc(N3CCN(S(=O)(=O)c4ccc(N5C[C@H](N)CC5=O)cc4)CC3)c2)CC1 [Example 072]
Ans. 4.3

Qu. Same for CNCCCNC(=O)c1ccc(C(F)(F)c2cc(Cl)nc(N3CCN(S(=O)(=O)c4ccc(N5C[C@H](N)CC5=O)cc4)CC3)c2)cn1 [Example 029]
Ans. 2.95

Qu. Same for CC(CN)NC(=O)[C@H]1CC[C@H](C(F)(F)c2cc(Cl)nc(N3CCN(S(=O)(=O)c4ccc(N5C[C@H](N)CC5=O)cc4)CC3)c2)CC1 (stereo partly shown) [Example 008]
Ans. 5.99

Qu. Same for N[C@@H]1C[C@H](N)CN(CCCNC(=O)[C@H]2CC[C@H](C(F)(F)c3cc(Cl)nc(N4CCN(S(=O)(=O)c5ccc(N6C[C@H](N)CC6=O)cc5)CC4)c3)CC2)C1 [Example 049]
Ans. 9.13

* * *

- assayed_system: Escherichia coli UDP-2,3-diacylglucosamine hydrolase (LpxH) (Escherichia coli (strain K12))
- method_description: Enzymatic IC50 assay of Escherichia coli LpxH (UMP/CMP-Glo luminescence)
- Assay type: biochemical
- measurement_conditions: Enzymatic IC50 against Escherichia coli LpxH; read-out: IC50 (converted)
- Protocol: The inhibitory potency of compounds of Escherichia coli UDP-2,3-diacylglucosamine hydrolase (LpxH) was determined in an enzymatic assay. […] The hydrolysis of UDP-DAG by LpxH yielded 2,3-diacylglucosamine 1-phosphate (lipid X) and UMP, which was converted to ATP and quantified by the luciferase reaction using the UMP/CMP-Glo™ Glycosyltransferase Assay kit from Promega. The compound's inhibitory effect of LpxH is determined by measuring the light change using a luminometer (Envision).
reported_metric: log10 IC50 (log10 of the value in nM)
Log scale reminder: IC50 in nM, then log10 taken.

NCCCNC(=O)C12CC(C(F)(F)c3cc(Cl)nc(N4CCN(S(=O)(=O)c5ccc(N6C[C@H](N)CC6=O)cc5)CC4)c3)(C1)C2 [Example 040] : 0.79
NCCCNC(=O)C12CCC(C(F)(F)c3cc(Cl)nc(N4CCN(S(=O)(=O)c5ccc(N6C[C@H](N)CC6=O)cc5)CC4)c3)(CC1)C2 [Example 034] : 1.47
NCCNCCNC(=O)c1ccc(C(F)(F)c2cc(Cl)nc(N3CCN(S(=O)(=O)c4ccc(N5C[C@H](N)CC5=O)cc4)CC3)c2)nc1 [Example 028] : 1.31
NCCCN(CCCN)C(=O)C12CCC(C(F)(F)c3cc(Cl)nc(N4CCN(S(=O)(=O)c5ccc(N6C[C@H](N)CC6=O)cc5)CC4)c3)(CC1)CC2 [Example 045] : 1.27

Now turn to the next molecule.
Qu. Fill blank: measured log10 IC50 of the molecule CC(=O)N1CCc2cc(S(=O)(=O)N3CCN(c4cc(Cl)cc(C(F)(F)F)c4)CC3)ccc21 [JH-LPH-33, reference compound] is ____.
Ans. 2.47

* * *

Listed next: entries and their corresponding Clearance of Human microsome.
- method_description: Human microsome stability assay
- Format: in vitro ADME
- measurement_conditions: human liver microsomes 0.5 mg/mL, 37° C., pH 7.4, NADPH regenerating system
Write the answer as a number in mL/min/kg, unit excluded.

NCCCNC(=O)C12CCC(C(F)(F)c3cc(Cl)nc(N4CCN(S(=O)(=O)c5ccc(N6C[C@H](N)CC6=O)cc5)CC4)c3)(CC1)CC2 : 10.77
N[C@@H]1CC(=O)N(c2ccc(S(=O)(=O)N3CCN(c4cc(C(F)(F)[C@H]5CC[C@H](C(=O)N6C[C@H](N)C[C@H](N)C6)CC5)cc(Cl)n4)CC3)cc2)C1 : 12.06

Qu. Fill blank: measured Clearance of Human microsome of the compound CN(C)CCCNC(=O)c1ccc(C(F)(F)c2cc(Cl)nc(N3CCN(S(=O)(=O)c4ccc(N5C[C@H](N)CC5=O)cc4)CC3)c2)cc1 is ____.
Ans. 9.48
